B1: LINE1-full (parent)
chain: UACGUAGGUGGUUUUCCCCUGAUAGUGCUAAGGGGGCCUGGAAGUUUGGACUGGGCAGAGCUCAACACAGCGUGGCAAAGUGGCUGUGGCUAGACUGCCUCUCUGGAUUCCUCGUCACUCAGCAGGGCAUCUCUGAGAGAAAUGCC

Variants of: B1
Experiment: self-cleavage, relative activity (ratio to wild type); higher = more cleavage; in vitro, sequencing; the parent is a self-cleaving ribozyme
Quick rule for you: self-cleavage at 1 or higher means Fulfilled, lower means Not fulfilled.

G40A U91C
Not fulfilled

QUERY: In plain terms: is recorded self-cleavage at least 1 for U12C A50G ?
RESULT: Fulfilled

QUERY: In plain terms: is recorded self-cleavage at least 1 for A64G U100C ?
RESULT: Not fulfilled

QUERY: In plain terms: is recorded self-cleavage at least 1 for G35A U39C ?
RESULT: Not fulfilled

QUERY: In plain terms: is recorded self-cleavage at least 1 for G10A U130C ?
RESULT: Fulfilled

QUERY: In plain terms: is recorded self-cleavage at least 1 for A117U A141U ?
RESULT: Fulfilled

QUERY: In plain terms: is recorded self-cleavage at least 1 for G8A G49A ?
RESULT: Fulfilled

Cited source: the RNAGym collection of RNA variant scans (doi:10.7554/elife.90254)
